# tgt: HIV-Protease (Human immunodeficiency virus type 1 group M subtype B, UniProt P04585)
# Construct: Gereinigte HIV-Protease wurde mit synthetischem Peptid
# assay-text: HIV-specific protease enzyme test (purified HIV protease incubated with synthetic Gag cleavage-site peptide, cleavage products analysed by RP-HPLC)
# Format: biochemical
# condition-set: read-out: % Inhibition bei 240 µg/ml
So basically: inhibition at 240 µg/mL at 80% or higher? That is T. Lower than 80%? That is F.

# check: inhibition at 240 µg/mL of CC(CN1CCN(CCCC(c2ccc(F)cc2)c2ccc(F)cc2)CC1)Oc1ccc(C(F)(F)F)cc1 (racemic) [Beispiel 40] is greater than or equal to 80%
T

----------
Reported log10(IC50) is given for each of the following molecules.
# tgt: HIV-Protease (Human immunodeficiency virus type 1 group M subtype B, UniProt P04585)
# Construct: Gereinigte HIV-Protease wurde mit synthetischem Peptid
# assay-text: HIV-specific protease enzyme test (purified HIV protease incubated with synthetic Gag cleavage-site peptide, cleavage products analysed by RP-HPLC)
# condition-set: substance concentration causing 50% inhibition of protease activity; read-out: IC₅₀
Please interpret these as log10 of IC50 where IC50 is in µM.

>  <molecule>
C[C@H]1CN(CCCC(c2ccc(F)cc2)c2ccc(F)cc2)CCN1CCOc1ccc(F)cc1F [Beispiel 14]

>  <measurement>
0.04

$$$$

Which log10(IC50) reading was recorded for the molecule C[C@H]1CN(CCOc2ccc(F)cc2F)CCN1CCCC(c1ccc(F)cc1)c1ccc(F)cc1 [Beispiel 13] ?
-0.32

Which log10(IC50) reading was recorded for the molecule CC(CN1CCN(CCCC(c2ccc(F)cc2)c2ccc(F)cc2)CC1)Oc1cccc2c1CCCC2 (stereo not shown) [Beispiel 41] ?
0.32

Which log10(IC50) reading was recorded for the molecule Cc1cc(Cl)ccc1OCCN1CCN(CCCC(c2ccc(F)cc2)c2ccc(F)cc2)CC1 [Beispiel 17] ?
-0.30

Which log10(IC50) reading was recorded for the molecule CC(CN1CCN(CCCC(c2ccc(F)cc2)c2ccc(F)cc2)CC1)Oc1ccc(F)cc1F (racemic) [Beispiel 10] ?
0.68

Which log10(IC50) reading was recorded for the molecule Fc1ccc(C(CCCN2CCN(CCOc3ccc(F)cc3F)CC2)c2ccc(F)cc2)cc1 [Beispiel 15] ?
-0.40

Which log10(IC50) reading was recorded for the molecule COc1cccc2c1OC(CN1CCN(CCCC(c3ccc(F)cc3)c3ccc(F)cc3)C[C@@H]1C)CC2 (stereo partly shown) [Beispiel 44] ?
1.41

Which log10(IC50) reading was recorded for the molecule Fc1ccc(C(CCCN2CCN(CCOc3cccc4c3CCCC4)CC2)c2ccc(F)cc2)cc1 [Beispiel 26] ?
0.00

Which log10(IC50) reading was recorded for the molecule CCN(C)c1cc(CO)ccc1OCCN1CCN(CCCC(c2ccc(F)cc2)c2ccc(F)cc2)CC1 [Beispiel 34] ?
-0.77

Which log10(IC50) reading was recorded for the molecule Cc1cc(Cl)ccc1OC(C)CN1CCN(CCCC(c2ccc(F)cc2)c2ccc(F)cc2)CC1 (stereo not shown) [Beispiel 39] ?
0.00

----------
# tgt: HIV-Protease (Human immunodeficiency virus type 1 group M subtype B, UniProt P04585)
# Construct: Gereinigte HIV-Protease wurde mit synthetischem Peptid
# assay-text: HIV-specific protease enzyme test (purified HIV protease incubated with synthetic Gag cleavage-site peptide, cleavage products analysed by RP-HPLC)
# Assay type: biochemical
# condition-set: read-out: % Inhibition bei 240 µg/ml
observable: inhibition at 240 µg/mL (%)
Express it in %; write the number only.

Answered cases to consult:
>  <compound>
Cc1ccc(N(C)C)cc1OCCN1CCN(CCCC(c2ccc(F)cc2)c2ccc(F)cc2)CC1 [Beispiel 30]

>  <inhibition at 240 µg/mL, %>
81

$$$$
>  <compound>
COc1cccc2c1OC(CN1CCN(CCCC(c3ccc(F)cc3)c3ccc(F)cc3)CC1)CC2 (stereo not drawn) [Beispiel 27]

>  <inhibition at 240 µg/mL, %>
78

$$$$
>  <compound>
C[C@H]1CN(CCCC(c2ccc(F)cc2)c2ccc(F)cc2)CCN1CCOc1ccc(F)cc1F [Beispiel 14]

>  <inhibition at 240 µg/mL, %>
99

$$$$
>  <compound>
CC(CN1CCN(CCCC(c2ccc(F)cc2)c2ccc(F)cc2)CC1)Oc1cccc2c1CCCC2 (stereo not drawn) [Beispiel 41]

>  <inhibition at 240 µg/mL, %>
95

$$$$
>  <compound>
CCN(C)c1cc(CO)ccc1OCCN1CCN(CCCC(c2ccc(F)cc2)c2ccc(F)cc2)CC1 [Beispiel 34]

>  <inhibition at 240 µg/mL, %>
99

$$$$

Which inhibition at 240 µg/mL reading was recorded for the compound Fc1ccc(C(CCCN2CCN(CCOc3cccc4c3CCCC4)CC2)c2ccc(F)cc2)cc1 [Beispiel 26] ?
97

Which inhibition at 240 µg/mL reading was recorded for the compound Fc1ccc(C(CCCN2CCN(CCOc3ccc(F)cc3F)CC2)c2ccc(F)cc2)cc1 [Beispiel 15] ?
92

Which inhibition at 240 µg/mL reading was recorded for the compound Cc1ccc(N)cc1OCCN1CCN(CCCC(c2ccc(F)cc2)c2ccc(F)cc2)CC1 [Beispiel 32] ?
67

Which inhibition at 240 µg/mL reading was recorded for the compound C[C@H]1CN(CCOc2ccc(F)cc2F)CCN1CCCC(c1ccc(F)cc1)c1ccc(F)cc1 [Beispiel 13] ?
91

Which inhibition at 240 µg/mL reading was recorded for the compound Cc1cccc(OCCN2CCN(CCCC(c3ccc(F)cc3)c3ccc(F)cc3)CC2)c1C [Beispiel 16] ?
59

Which inhibition at 240 µg/mL reading was recorded for the compound Cc1cccc(OC(C)CN2CCN(CCCC(c3ccc(F)cc3)c3ccc(F)cc3)CC2)c1C (racemic) [Beispiel 37] ?
61

Which inhibition at 240 µg/mL reading was recorded for the compound COc1cccc2c1OC(CN1CCN(CCCC(c3ccc(F)cc3)c3ccc(F)cc3)C[C@@H]1C)CC2 (stereo partly drawn) [Beispiel 44] ?
99

Which inhibition at 240 µg/mL reading was recorded for the compound CN(C)c1ccccc1OCCN1CCN(CCCC(c2ccc(F)cc2)c2ccc(F)cc2)CC1 [Beispiel 3] ?
76

Which inhibition at 240 µg/mL reading was recorded for the compound COC(=O)c1ccc(OCCN2CCN(CCCC(c3ccc(F)cc3)c3ccc(F)cc3)CC2)c(N(C)C(C)=O)c1 [Beispiel 33] ?
56

Which inhibition at 240 µg/mL reading was recorded for the compound Cc1cc(Cl)ccc1OC(C)CN1CCN(CCCC(c2ccc(F)cc2)c2ccc(F)cc2)CC1 (stereo not drawn) [Beispiel 39] ?
77

Which inhibition at 240 µg/mL reading was recorded for the compound Cc1cc(Cl)ccc1OCCN1CCN(CCCC(c2ccc(F)cc2)c2ccc(F)cc2)CC1 [Beispiel 17] ?
86

Which inhibition at 240 µg/mL reading was recorded for the compound COc1cc(C)ccc1OCCN1CCN(CCCC(c2ccc(F)cc2)c2ccc(F)cc2)CC1 [Beispiel 22] ?
81

Which inhibition at 240 µg/mL reading was recorded for the compound CC(CN1CCN(CCCC(c2ccc(F)cc2)c2ccc(F)cc2)CC1)Oc1ccc(F)cc1F (racemic) [Beispiel 10] ?
77
